# credit: patent US20100047253A1

The entries below come with measured koff values attached.
tested_system: T1, Recombinant Human IL-13 (R & D 213-IL-005) (human, UniProt P35225 35-146)
T1 construct: also called IL-13 antigen (R&D Systems)
T1 sequence (P35225 35-146 limits assumed): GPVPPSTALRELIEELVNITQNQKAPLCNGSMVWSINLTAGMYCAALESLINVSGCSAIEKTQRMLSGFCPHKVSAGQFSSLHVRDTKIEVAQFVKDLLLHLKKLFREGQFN
experiment_summary: SPR (Biacore 2000), mAb captured on goat anti-human surface, IL-13 (R&D) injected, 1:1 model
// return numeric value only (unit: s⁻¹, not printed)

- binder: "mAb 713 (antibody, V domains shown) VH: EVQLLESGGGLVQPGGSLRLSCAASGFTFSSYAMSWVRQAPGKGLEWVSAFSGSGGSTYYADSVKGRFTISRDNSKNTLYLQMNSLRAEDTAVYYCVQDGLGPYFYNYGMDVWGQGTTVTVSS VL: SYELTQPPSVSVSPGQTASITCSGDKLGDKYTCWFQQKPGQSPVLVIYHDSKRPSGIPERFSGSNSGDTATLTISGTQAMDEADYYCQAWDSSTYVFGTGTKVTVLG"
  koff / s⁻¹: "3.4e-05"

Proceeding to the next binder to report its koff.
Request: Give recorded koff. mAb 602 (antibody, V domains shown) VH: EVQLVESGGGLVKPGGSLRLSCAASGFTFSNAWMSWVRQAPGKGLEWVGRIRSKIDGGTINYAAPVKGRFTISRDDSKNTLYLQMNSLKTEDTAVYYCATDQVGAYYGDYYGMDVWGQGTTVTVSS VL: SYELTQPPSVSVSPGQTARITCSGDALPEKYAYWYQQKSGQAPVLVIYEDTKRPSGIPERFSGSSSGTMATLTISGAQVEDEADYYCYSTDSSGNHGVFGGGTKLTVLG
Result: 0.00051
